System: E. Coli NCTC 10418
testName: Veterinary bacteria MIC, Diagnostic Sensitivity Test Agar (Table 2)
Assay type: cell-based
studyConditions: Escherichia coli, NCTC10418, 18 h
Each record here notes measured MIC.

Recorded MIC, per entry:
Enquiry: Quick one: MIC for C/C(=C\C(=O)OCc1ccccc1[N+](=O)[O-])CC1OCC(CC2OC2C(C)C(C)O)C(O)C1O (stereo not shown) [C, O--nitrobenzyl monate A, reference compound] ?
Return: > 80 µg/mL

Enquiry: Returns the measured MIC for the input compound. Input: C/C(=C\C(=O)OCc1cc([N+](=O)[O-])cc([N+](=O)[O-])c1)CC1OCC(CC2OC2C(C)C(C)O)C(O)C1O (stereo not shown) [Example 6, 3,5-dinitrobenzyl monate A]
Return: 80 µg/mL

Enquiry: What does the data say about its MIC? Entry: C/C(=C\C(=O)OCc1ccc([N+](=O)[O-])c([N+](=O)[O-])c1)CC1OCC(CC2OC2C(C)C(C)O)C(O)C1O (stereo not shown) [Example 9, 3,4-dinitrobenzyl monate A]
Return: 80 µg/mL

Enquiry: // MIC lookup, key: C/C(=C\C(=O)OCc1cc([N+](=O)[O-])cc([N+](=O)[O-])c1C)CC1OCC(CC2OC2C(C)C(C)O)C(O)C1O (stereo not shown) [Example 7, 3,5-dinitro-2-methylbenzyl monate A]
Return: > 80 µg/mL

Enquiry: Can you share its MIC? I mean this compound: C/C(=C\C(=O)OCc1ccc([N+](=O)[O-])cc1[N+](=O)[O-])CC1OCC(CC2OC2C(C)C(C)O)C(O)C1O (stereo not shown) [Example 10, 2,4-dinitrobenzyl monate A]
Return: > 80 µg/mL

Continuing:
Enquiry: MIC lookup needed for C/C(=C\C(=O)OCc1ccc([N+](=O)[O-])cc1Cl)CC1OCC(CC2OC2C(C)C(C)O)C(O)C1O (stereo not shown) [Example 11, 2-chloro-4-nitrobenzyl monate A] , thanks.
Return: 80 µg/mL

Enquiry: Fill blank: measured MIC of the compound C/C(=C\C(=O)OCc1cccc([N+](=O)[O-])c1C)CC1OCC(CC2OC2C(C)C(C)O)C(O)C1O (stereo not shown) [Example 8, 2-methyl-3-nitrobenzyl monate A] is ____.
Return: > 80 µg/mL

----------
Tested on: M. suipneumoniae OCD 1
testName: Anti-mycoplasmal MIC in vitro, Friis broth agarose (Table 1)
Assay type: cell-based
studyConditions: Mesomycoplasma hyopneumoniae, OCD1, 144 h
Quick reference: MIC of the listed items.
# number only, unit µg/mL dropped from output

Worked cases, answers included:
Enquiry: Would you kindly share the measured MIC for C/C(=C\C(=O)OCc1cccc([N+](=O)[O-])c1)CC1OCC(C/C=C/C(C)C(C)O)C(O)C1O (centres unmarked) [Example 5, m-nitrobenzyl monate C] ?
Return: 0.25

Enquiry: Quick one: MIC of C/C(=C\C(=O)OCc1ccc([N+](=O)[O-])cc1Cl)CC1OCC(CC2OC2C(C)C(C)O)C(O)C1O (centres unmarked) [Example 11, 2-chloro-4-nitrobenzyl monate A] ?
Return: 2.5

Enquiry: Any idea what its MIC is? The molecule is C/C(=C\C(=O)OCc1ccccc1[N+](=O)[O-])CC1OCC(CC2OC2C(C)C(C)O)C(O)C1O (centres unmarked) [C, O--nitrobenzyl monate A, reference compound]
Return: 0.5

Enquiry: Fill in the blank: the reported MIC of C/C(=C\C(=O)OCc1ccc([N+](=O)[O-])cc1[N+](=O)[O-])CC1OCC(CC2OC2C(C)C(C)O)C(O)C1O (centres unmarked) [Example 10, 2,4-dinitrobenzyl monate A] is ____.
Return: 1

Enquiry: Any idea what MIC was measured for C/C(=C\C(=O)OCc1ccc([N+](=O)[O-])c([N+](=O)[O-])c1)CC1OCC(CC2OC2C(C)C(C)O)C(O)C1O (centres unmarked) [Example 9, 3,4-dinitrobenzyl monate A] ?
Return: 0.5

Enquiry: For the molecule shown here, C/C(=C\C(=O)OCc1cc([N+](=O)[O-])cc([N+](=O)[O-])c1C)CC1OCC(CC2OC2C(C)C(C)O)C(O)C1O (centres unmarked) [Example 7, 3,5-dinitro-2-methylbenzyl monate A] , give the reported MIC.
Return: 0.25

***
Enquiry: Any idea what its MIC is? The molecule is C/C(=C\C(=O)OC(C)c1ccc([N+](=O)[O-])cc1)CC1OCC(CC2OC2C(C)C(C)O)C(O)C1O (centres unmarked) [Example 4, 1-(p-nitrophenyl)ethyl monate A]
Return: 1

Enquiry: Query (molecule): C/C(=C\C(=O)OCc1cc([N+](=O)[O-])cc([N+](=O)[O-])c1)CC1OCC(CC2OC2C(C)C(C)O)C(O)C1O (centres unmarked) [Example 6, 3,5-dinitrobenzyl monate A] ; field requested: MIC
Return: 0.05

----------
Tested on: Past. multocida PA1
testName: Veterinary bacteria MIC, Diagnostic Sensitivity Test Agar (Table 2)
Format: cell-based
studyConditions: Pasteurella multocida, PA1, 18 h
readoutName: MIC (µg/mL)
Express your answer in µg/mL, writing the number without its unit.

Use these answered entries as a reference point.
Enquiry: Data request, read-out MIC, for C/C(=C\C(=O)OCc1ccc([N+](=O)[O-])c([N+](=O)[O-])c1)CC1OCC(CC2OC2C(C)C(C)O)C(O)C1O (centres unmarked) [Example 9, 3,4-dinitrobenzyl monate A]
Return: 0.625

Enquiry: Endpoint output: MIC of C/C(=C\C(=O)OCc1ccc([N+](=O)[O-])cc1Cl)CC1OCC(CC2OC2C(C)C(C)O)C(O)C1O (centres unmarked) [Example 11, 2-chloro-4-nitrobenzyl monate A] . Value?
Return: 0.625

Enquiry: Please look up its MIC: C/C(=C\C(=O)OCc1cc([N+](=O)[O-])cc([N+](=O)[O-])c1C)CC1OCC(CC2OC2C(C)C(C)O)C(O)C1O (centres unmarked) [Example 7, 3,5-dinitro-2-methylbenzyl monate A]
Return: 2.5

Enquiry: Entry C/C(=C\C(=O)OCc1cc([N+](=O)[O-])cc([N+](=O)[O-])c1)CC1OCC(CC2OC2C(C)C(C)O)C(O)C1O (centres unmarked) [Example 6, 3,5-dinitrobenzyl monate A] has what MIC?
Return: 1.25

Consider the additional compound presented here.
Enquiry: I'd like to know its MIC. The compound in question is C/C(=C\C(=O)OCc1ccc([N+](=O)[O-])cc1[N+](=O)[O-])CC1OCC(CC2OC2C(C)C(C)O)C(O)C1O (centres unmarked) [Example 10, 2,4-dinitrobenzyl monate A]
Return: 2.5

----------
Entries and their MIC
Tested on: S. dublin S7
testName: Veterinary bacteria MIC, Diagnostic Sensitivity Test Agar (Table 2)
Assay type: cell-based
studyConditions: Salmonella enterica; S. dublin S7; DST Agar, 10^4 organisms, 18 hours 37° C.; read-out: MIC
The answer is to be given in µg/mL; state only the numeric part.

Enquiry: So what MIC did C/C(=C\C(=O)OCc1cccc([N+](=O)[O-])c1)CC1OCC(CC2OC2C(C)C(C)O)C(O)C1O (centres unmarked) [Example 2, m-nitrobenzyl monate A] get with S. dublin S7?
Return: 80

# evaluate next
Enquiry: # get_value(readout= MIC, system= S. dublin S7) for C/C(=C\C(=O)OCc1ccc([N+](=O)[O-])cc1)CC1OCC(CC2OC2C(C)C(C)O)C(O)C1O (centres unmarked) [Example 1, p-nitrobenzyl monate A]
Return: 40

----------
System: M. suipneumoniae PW/C/210
testName: Anti-mycoplasmal MIC in vitro, Friis broth agarose (Table 1)
Type: cell-based
studyConditions: Mesomycoplasma hyopneumoniae, 144 h
readoutName: MIC (µg/mL)
Give just the numeric value; µg/mL need not be written.

Enquiry: # MIC lookup, item C/C(=C\C(=O)OCc1ccc([N+](=O)[O-])cc1Cl)CC1OCC(CC2OC2C(C)C(C)O)C(O)C1O (stereo not shown) [Example 11, 2-chloro-4-nitrobenzyl monate A]
Return: 1

Others:
Enquiry: Find the recorded MIC belonging to C/C(=C\C(=O)OCc1cc([N+](=O)[O-])cc([N+](=O)[O-])c1)CC1OCC(CC2OC2C(C)C(C)O)C(O)C1O (stereo not shown) [Example 6, 3,5-dinitrobenzyl monate A] and report it.
Return: 0.025

Enquiry: Dear colleague, I am looking for the recorded MIC of the following molecule: C/C(=C\C(=O)OCc1cccc([N+](=O)[O-])c1)CC1OCC(C/C=C/C(C)C(C)O)C(O)C1O (stereo not shown) [Example 5, m-nitrobenzyl monate C]
Return: 0.1

Enquiry: Field request: MIC | item: C/C(=C\C(=O)OCc1cc([N+](=O)[O-])cc([N+](=O)[O-])c1C)CC1OCC(CC2OC2C(C)C(C)O)C(O)C1O (stereo not shown) [Example 7, 3,5-dinitro-2-methylbenzyl monate A]
Return: 0.1

Enquiry: Looking for the measured MIC of C/C(=C\C(=O)OCc1cccc([N+](=O)[O-])c1C)CC1OCC(CC2OC2C(C)C(C)O)C(O)C1O (stereo not shown) [Example 8, 2-methyl-3-nitrobenzyl monate A] , can you help?
Return: 0.1

Enquiry: I would be grateful if you could share the reported MIC for C/C(=C\C(=O)OCc1ccc([N+](=O)[O-])cc1[N+](=O)[O-])CC1OCC(CC2OC2C(C)C(C)O)C(O)C1O (stereo not shown) [Example 10, 2,4-dinitrobenzyl monate A] .
Return: 0.5
